Target: NOX3 (Homo sapiens, UniProt Q9HBY0)
Sequence (Q9HBY0 whole entry): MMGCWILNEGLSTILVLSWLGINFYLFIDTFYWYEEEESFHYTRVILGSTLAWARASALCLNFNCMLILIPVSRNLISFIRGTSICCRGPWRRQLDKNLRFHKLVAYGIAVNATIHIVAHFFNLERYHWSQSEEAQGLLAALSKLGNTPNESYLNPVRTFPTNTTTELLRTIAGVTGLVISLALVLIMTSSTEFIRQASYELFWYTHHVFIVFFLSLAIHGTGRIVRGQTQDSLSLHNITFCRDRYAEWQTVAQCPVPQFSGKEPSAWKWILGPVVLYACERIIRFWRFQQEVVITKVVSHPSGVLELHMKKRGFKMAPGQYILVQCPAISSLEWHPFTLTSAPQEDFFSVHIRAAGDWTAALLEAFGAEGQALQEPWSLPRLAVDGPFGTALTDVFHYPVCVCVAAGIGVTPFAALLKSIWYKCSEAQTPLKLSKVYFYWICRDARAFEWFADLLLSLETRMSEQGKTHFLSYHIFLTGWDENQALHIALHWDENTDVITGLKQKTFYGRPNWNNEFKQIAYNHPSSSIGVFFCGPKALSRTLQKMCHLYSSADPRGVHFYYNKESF
Sequence (P13498 whole entry partner): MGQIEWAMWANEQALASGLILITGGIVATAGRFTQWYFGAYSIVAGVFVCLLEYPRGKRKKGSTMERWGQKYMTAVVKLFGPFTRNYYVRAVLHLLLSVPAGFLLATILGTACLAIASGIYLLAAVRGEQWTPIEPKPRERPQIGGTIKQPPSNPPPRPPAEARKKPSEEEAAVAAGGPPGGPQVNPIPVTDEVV
Sequence (Q8NFA2 whole entry partner): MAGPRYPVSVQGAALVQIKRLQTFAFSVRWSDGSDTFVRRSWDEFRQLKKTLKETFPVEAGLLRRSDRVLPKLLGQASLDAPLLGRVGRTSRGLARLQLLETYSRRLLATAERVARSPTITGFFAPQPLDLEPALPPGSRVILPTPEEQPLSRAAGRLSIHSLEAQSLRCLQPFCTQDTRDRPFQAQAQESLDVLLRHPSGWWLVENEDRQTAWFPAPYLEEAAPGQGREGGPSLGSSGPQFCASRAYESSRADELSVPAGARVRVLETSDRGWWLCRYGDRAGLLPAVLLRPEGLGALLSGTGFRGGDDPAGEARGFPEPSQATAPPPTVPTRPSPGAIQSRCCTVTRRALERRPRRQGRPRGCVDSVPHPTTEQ
Assay: Amplex Red/HRP H2O2 detection in tetracycline-induced NOX3 HEK293 T-REx cells
Assay type: cell-based
READOUT_NAME: IC50

(Q) Please supply the value of reported IC50 for the item c1ccc2c(c1)[I+]c1ccccc1-2 [DPI, diphenylene iodonium chloride]
(A) 2200 nM

* * *

Molecular target: DUOX2 (Homo sapiens, UniProt Q9NRD8)
Sequence (Q9NRD8 26-1548): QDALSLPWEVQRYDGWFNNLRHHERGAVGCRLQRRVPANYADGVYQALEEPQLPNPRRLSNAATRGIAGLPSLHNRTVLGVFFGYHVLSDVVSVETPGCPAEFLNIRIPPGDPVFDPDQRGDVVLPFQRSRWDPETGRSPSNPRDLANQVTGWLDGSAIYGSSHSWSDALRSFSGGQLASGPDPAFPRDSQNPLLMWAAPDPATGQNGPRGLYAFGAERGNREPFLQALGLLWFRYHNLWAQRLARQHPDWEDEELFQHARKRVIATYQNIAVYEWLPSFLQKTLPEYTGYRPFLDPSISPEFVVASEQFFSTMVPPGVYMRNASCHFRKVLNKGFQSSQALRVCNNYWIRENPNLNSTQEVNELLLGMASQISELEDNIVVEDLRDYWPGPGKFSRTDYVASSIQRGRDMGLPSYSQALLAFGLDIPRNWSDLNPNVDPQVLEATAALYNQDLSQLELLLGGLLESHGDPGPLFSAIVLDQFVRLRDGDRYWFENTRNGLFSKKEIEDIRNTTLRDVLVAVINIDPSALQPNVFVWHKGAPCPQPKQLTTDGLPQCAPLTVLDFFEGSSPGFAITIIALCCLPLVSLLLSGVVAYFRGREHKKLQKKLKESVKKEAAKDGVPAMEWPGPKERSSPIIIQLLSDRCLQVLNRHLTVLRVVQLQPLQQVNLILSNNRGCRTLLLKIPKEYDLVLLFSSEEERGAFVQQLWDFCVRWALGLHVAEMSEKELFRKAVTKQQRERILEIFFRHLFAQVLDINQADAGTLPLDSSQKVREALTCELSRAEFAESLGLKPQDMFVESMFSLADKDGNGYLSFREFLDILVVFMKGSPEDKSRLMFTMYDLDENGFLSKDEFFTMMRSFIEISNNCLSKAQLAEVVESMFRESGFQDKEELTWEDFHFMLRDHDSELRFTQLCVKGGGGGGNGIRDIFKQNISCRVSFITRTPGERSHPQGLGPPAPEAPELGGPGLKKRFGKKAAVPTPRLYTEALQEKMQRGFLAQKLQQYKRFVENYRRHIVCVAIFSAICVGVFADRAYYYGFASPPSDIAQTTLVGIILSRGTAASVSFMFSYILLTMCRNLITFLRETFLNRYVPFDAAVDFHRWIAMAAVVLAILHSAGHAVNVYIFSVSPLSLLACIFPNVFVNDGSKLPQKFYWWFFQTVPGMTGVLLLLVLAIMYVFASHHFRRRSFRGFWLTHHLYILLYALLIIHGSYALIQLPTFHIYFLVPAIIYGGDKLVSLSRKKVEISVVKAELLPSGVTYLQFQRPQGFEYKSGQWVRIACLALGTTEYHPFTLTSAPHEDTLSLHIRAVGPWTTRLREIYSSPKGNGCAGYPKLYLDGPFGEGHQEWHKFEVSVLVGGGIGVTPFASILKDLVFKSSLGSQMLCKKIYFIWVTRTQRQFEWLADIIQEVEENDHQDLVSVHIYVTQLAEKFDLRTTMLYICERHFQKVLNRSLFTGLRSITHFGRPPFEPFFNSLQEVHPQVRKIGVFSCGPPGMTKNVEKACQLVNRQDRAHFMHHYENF
Sequence (Q1HG44 whole entry partner): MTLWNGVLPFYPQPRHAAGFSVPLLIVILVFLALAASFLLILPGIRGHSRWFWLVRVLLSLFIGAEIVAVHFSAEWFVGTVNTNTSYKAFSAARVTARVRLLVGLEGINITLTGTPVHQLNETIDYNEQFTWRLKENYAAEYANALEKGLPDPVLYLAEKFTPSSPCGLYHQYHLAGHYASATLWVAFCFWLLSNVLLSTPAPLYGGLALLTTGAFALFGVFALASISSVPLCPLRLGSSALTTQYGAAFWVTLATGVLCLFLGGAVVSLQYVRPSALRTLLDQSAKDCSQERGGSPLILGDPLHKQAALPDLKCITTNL
Assay: Amplex Red/HRP H2O2 detection in DUOX2-expressing HEK293 cells
Details: PMA 0.1 μM and ionomycin 1 μM, read-out: IC50 DUOX2 (HEK) AR
READOUT_NAME: pIC50
One number for each entry, as −log10 of the molar value.

COc1cc(C(C)=O)cc(-c2cc(C(C)=O)cc(OC)c2O)c1O :: 4.66
Cc1c2c(=O)n(-c3ccccc3Cl)[nH]c2cc(=O)n1Cc1ccccn1 :: 5.01

From here, focus on the item given below.
(Q) Please supply the value of reported pIC50 for the item O=c1c2ccccc2[se]n1-c1ccccc1
(A) 5.38
